# Test system: S. pneumoniae Topoisomerase IV ATPase (ParE) (Streptococcus pneumoniae serotype 4, UniProt Q59961)
# Sequence (Q59961 whole entry): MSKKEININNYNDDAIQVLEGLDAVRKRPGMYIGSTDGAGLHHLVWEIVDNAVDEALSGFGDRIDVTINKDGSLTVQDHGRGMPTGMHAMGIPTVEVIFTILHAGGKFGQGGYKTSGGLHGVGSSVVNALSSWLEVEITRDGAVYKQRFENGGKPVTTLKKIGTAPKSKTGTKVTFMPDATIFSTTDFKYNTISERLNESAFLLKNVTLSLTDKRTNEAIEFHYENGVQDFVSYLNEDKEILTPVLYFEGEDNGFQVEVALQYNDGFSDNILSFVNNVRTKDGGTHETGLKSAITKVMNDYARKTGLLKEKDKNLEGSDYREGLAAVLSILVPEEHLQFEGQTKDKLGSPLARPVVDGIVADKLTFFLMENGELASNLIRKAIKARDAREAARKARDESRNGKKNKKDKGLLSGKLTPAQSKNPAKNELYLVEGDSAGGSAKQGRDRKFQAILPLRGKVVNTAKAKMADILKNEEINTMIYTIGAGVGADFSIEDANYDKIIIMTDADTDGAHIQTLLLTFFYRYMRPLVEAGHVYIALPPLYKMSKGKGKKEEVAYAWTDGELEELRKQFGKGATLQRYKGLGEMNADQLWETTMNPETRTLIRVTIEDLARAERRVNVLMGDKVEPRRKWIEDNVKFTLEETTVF
# Assay notes: S. pneumoniae Topoisomerase IV ATPase inhibition
# Assay type: biochemical
# Measurement setup: values marked * are an average of two or more data points, read-out: % Inh (13 μM) of S. pneumoniae Topoisomerase IV ATPase
# Lookup of reported inhibition at 13 µM keyed by entry
Assay readout: inhibition at 13 µM (%)

* CC(Oc1ncc(-c2cnc(Nc3ccc(F)c(Cl)c3)nc2-n2ccc(C(F)(F)F)n2)cc1C(=O)O)c1ccncc1 (stereo not drawn) | 100
* COCCCNc1nc(Nc2ccc(F)c(Cl)c2)ncc1-c1ccc2ncc(C(=O)O)cc2c1 | 89.2
* CNC(=O)c1cncc(-c2cnc(Nc3cc(OC)cc(OC)c3)nc2-n2ccc(C(F)(F)F)n2)c1 | 100
* O=C(O)/C=C/c1cccc(-c2cnc(Nc3ccc(F)c(Cl)c3)nc2-n2cccc2)c1 | 62.8
* COc1cc(Nc2ncc(-c3cncc(C(=O)O)c3)c(-n3ccc(C(F)(F)F)n3)n2)cc(S(C)(=O)=O)c1 | 100
* O=C(O)c1cncc(-c2cnc(Nc3ccc(F)c(Cl)c3)nc2-n2ccc(C(F)(F)F)n2)c1 | 101
* Cc1cc(C(F)(F)F)nn1-c1nc(Nc2ccc(F)c(Cl)c2)ncc1-c1cnc(OCCO)c(C(=O)O)c1 | 100
* COc1cc(F)cc(Nc2ncc(-c3cnc(OC)c(C(=O)NS(C)(=O)=O)c3)c(-n3ccc(C(F)(F)F)n3)n2)c1 | 100
* COc1cccc(-c2cnc(Nc3ccc(F)c(Cl)c3)nc2-n2ccc(C(F)(F)F)n2)n1 | 0
* O=C(O)C1CCN(c2cccc(-c3cnc(Nc4ccc(F)c(Cl)c4)nc3-n3ccc(C(F)(F)F)n3)c2)C1 (stereo not drawn) | 100
* O=C(O)c1cncc(-c2cnc(Nc3ccc(F)c(Cl)c3)nc2-n2ccc(-c3ccsc3)n2)c1 | 100
* Cc1cc(C(F)F)nn1-c1nc(Nc2ccc(F)c(Cl)c2)ncc1-c1cncc(C(N)=O)c1 | 100
* Nc1cc(C(=O)O)cc(-c2cnc(Nc3ccc(F)c(Cl)c3)nc2N2CCOCC2)c1 | 87
* O=C(O)c1cncc(-c2cnc(Nc3ccc(F)c(Cl)c3)nc2NCCN2CCOCC2)c1 | 79
* COc1cc(F)cc(Nc2ncc(-c3cnc(OC)c(C(=O)NS(C)(=O)=O)c3)c(-n3nc(C(F)(F)F)cc3C)n2)c1 | 100

----------
# Test system: S. pneumoniae Topoisomerase IV ATPase (ParE) (Streptococcus pneumoniae serotype 4, UniProt Q59961)
# Assay notes: S. pneumoniae Topoisomerase IV ATPase inhibition
# Assay type: biochemical
# Measurement setup: values marked * are an average of two or more data points, read-out: % Inh (13 μM) of S. pneumoniae Topoisomerase IV ATPase
Let's look at some molecules and their measured inhibition at 13 µM.
Assay readout: inhibition at 13 µM (%)

* O=C(O)c1cc(-c2cnc(Nc3ccc(F)c(Cl)c3)nc2-n2ccc(C(F)(F)F)n2)cnc1OCCN1CCOCC1 [Example 1140] | 100
* COc1cc(Cl)cc(Nc2ncc(-c3cnc(OC)c(C(=O)O)c3)c(-n3ccc(C(F)(F)F)n3)n2)c1 [Example 758] | 98
* COc1ncc(-c2cnc(Nc3ccc(F)c(Cl)c3)nc2NCCCN(C)C)cn1 [Example 1] | 5.14
* COCCCNc1nc(Nc2ccc(F)c(Cl)c2)ncc1-c1nc(-c2cnoc2C)cs1 [Example 503] | 147
* Cc1cc(C#N)cc(Nc2ncc(-c3cncc(C(=O)O)c3)c(-n3ccc(C(F)(F)F)n3)n2)c1 [Example 784] | 70
* CCOC(=O)CNc1nc(Nc2ccc(F)c(Cl)c2)ncc1-c1cncnc1 [Example 54] | 77.5
* CCN(CC)S(=O)(=O)c1cncc(-c2cnc(Nc3ccc(F)c(Cl)c3)nc2-n2nc(C(F)(F)F)cc2C)c1 [Example 1034] | 96
* NC(=O)c1cncc(-c2cnc(Nc3ccc(F)c(Cl)c3)nc2NCCc2ccncc2)c1 [Example 474] | 100

// provenance: patent US20100137313A1
